- target of assay: Opioid receptors; mu & delta (Rattus norvegicus) (UniProt P33533+P33535)
- Sequence (P33533 whole entry, looked up): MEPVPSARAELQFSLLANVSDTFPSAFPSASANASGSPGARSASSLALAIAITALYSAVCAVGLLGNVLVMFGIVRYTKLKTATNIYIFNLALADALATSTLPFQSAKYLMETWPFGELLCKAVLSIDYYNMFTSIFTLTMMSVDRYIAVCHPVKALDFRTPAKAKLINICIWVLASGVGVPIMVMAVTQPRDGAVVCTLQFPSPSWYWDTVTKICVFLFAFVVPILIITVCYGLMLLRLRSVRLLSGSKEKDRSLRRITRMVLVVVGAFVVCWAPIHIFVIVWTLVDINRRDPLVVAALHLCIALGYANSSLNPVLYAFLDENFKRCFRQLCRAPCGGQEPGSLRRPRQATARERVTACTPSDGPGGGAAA
- Sequence (P33535 whole entry, looked up): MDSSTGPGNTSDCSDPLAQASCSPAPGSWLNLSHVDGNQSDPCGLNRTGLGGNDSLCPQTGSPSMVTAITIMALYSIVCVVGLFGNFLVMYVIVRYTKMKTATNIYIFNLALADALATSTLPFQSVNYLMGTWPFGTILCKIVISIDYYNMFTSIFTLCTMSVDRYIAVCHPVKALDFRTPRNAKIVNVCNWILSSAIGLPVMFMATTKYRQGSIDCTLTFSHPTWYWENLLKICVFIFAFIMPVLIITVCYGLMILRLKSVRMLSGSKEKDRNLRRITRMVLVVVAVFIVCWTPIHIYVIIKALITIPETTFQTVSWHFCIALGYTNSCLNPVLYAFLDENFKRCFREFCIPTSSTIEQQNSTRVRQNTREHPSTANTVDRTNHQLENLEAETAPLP
- protocol summary: Ratio of selective binding affinity of mu receptor to that of delta opioid receptor
- Assay type: protein assay
Positions of bridges follow the written chain, without caps; N, C: chain ends. Non-standard residues stand in square brackets, D forms with d. Residues, ends and D or L forms follow the SMILES beside them. Tic = O=C(O)[C@@H]1Cc2ccccc2CN1; Pen = CC(C)(S)[C@H](N)C(=O)O
For each entry below, report its Ratio value.
Please reply with the value in numeric form only.

# Ratio measured on Opioid receptors; mu & delta (Rattus norvegicus) (UniProt P33533+P33535) for item C[C@@H](O)[C@@H]1NC(=O)[C@H](CCCCN)NC(=O)C(Cc2c[nH]c3ccccc23)NC(=O)[C@H](Cc2ccc(O)cc2)NC(=O)[C@@H](NC(=O)[C@H]2Cc3ccccc3CN2)CSSC(C)(C)[C@@H](C(=O)N[C@@H](CO)C(N)=O)NC1=O (stereo in doubt) = 491

The recorded Ratio with Opioid receptors; mu & delta (Rattus norvegicus) (UniProt P33533+P33535) for C[C@@H](O)[C@H](NC(=O)[C@H]1NC(=O)[C@H]([C@@H](C)O)NC(=O)[C@H](CCCN=C(N)N)NC(=O)[C@H](Cc2c[nH]c3ccccc23)NC(=O)[C@H](Cc2ccc(O)cc2)NC(=O)[C@@H](NC(=O)[C@@H]2Cc3ccccc3CN2)CSSC1(C)C)C(N)=O (H-[Tic]CYWRT[Pen]T-NH2; disulfide 2-7) was 1060

Ratio value, target or system Opioid receptors; mu & delta (Rattus norvegicus) (UniProt P33533+P33535), for `C[C@@H](O)[C@H](NC(=O)[C@H]1NC(=O)[C@H]([C@@H](C)O)NC(=O)[C@H](CCCNC(=N)N)NC(=O)[C@@H](Cc2c[nH]c3ccccc23)NC(=O)[C@H](Cc2ccc(O)cc2)NC(=O)[C@@H](NC(=O)[C@H](N)Cc2ccccc2)CSSC1(C)C)C(N)=O` : 2530

Considering C[C@@H](O)[C@H](NC(=O)[C@H]1NC(=O)[C@H]([C@@H](C)O)NC(=O)[C@H](CCCN)NC(=O)C(Cc2c[nH]c3ccccc23)NC(=O)[C@@H](Cc2ccc(O)cc2)NC(=O)[C@@H](NC(=O)[C@H]2Cc3ccccc3CN2C(=O)CN)CSSC1(C)C)C(N)=O (stereo in doubt) , its Ratio with Opioid receptors; mu & delta (Rattus norvegicus) (UniProt P33533+P33535) was recorded as 19

// Ratio (Opioid receptors; mu & delta (Rattus norvegicus) (UniProt P33533+P33535)) for `CC(C)[C@H](NC(=O)[C@H]1NC(=O)[C@H]([C@@H](C)O)NC(=O)[C@H](CCCCN)NC(=O)[C@H](Cc2c[nH]c3ccccc23)NC(=O)[C@H](Cc2ccc(O)cc2)NC(=O)[C@@H](NC(=O)[C@H]2Cc3ccccc3CN2)CSSC1(C)C)C(N)=O` = 46

Field Ratio (Opioid receptors; mu & delta (Rattus norvegicus) (UniProt P33533+P33535)), entry C[C@@H](O)[C@H](NC(=O)[C@H]1NC(=O)[C@H]([C@@H](C)O)NC(=O)[C@H](CCCCN)NC(=O)C(Cc2c[nH]c3ccccc23)NC(=O)[C@@H](Cc2ccc(O)cc2)NC(=O)[C@@H](NC(=O)[C@H]2Cc3ccccc3CN2)CSSC1(C)C)C(N)=O (stereo in doubt) : 7770

Bench note, Opioid receptors; mu & delta (Rattus norvegicus) (UniProt P33533+P33535): `C[C@@H](O)[C@H](NC(=O)[C@H]1NC(=O)[C@H]([C@@H](C)O)NC(=O)[C@H](CCCCN)NC(=O)[C@H](Cc2c[nH]c3ccccc23)NC(=O)[C@H](Cc2ccc(O)cc2)NC(=O)[C@@H](NC(=O)[C@@H](N)Cc2ccccc2)CSSC1(C)C)C(N)=O` , Ratio reads 312
